Assay read-out pKi; system under study: Acetylcholine-binding protein (Lymnaea stagnalis, UniProt P58154).
Sequence (P58154 whole entry): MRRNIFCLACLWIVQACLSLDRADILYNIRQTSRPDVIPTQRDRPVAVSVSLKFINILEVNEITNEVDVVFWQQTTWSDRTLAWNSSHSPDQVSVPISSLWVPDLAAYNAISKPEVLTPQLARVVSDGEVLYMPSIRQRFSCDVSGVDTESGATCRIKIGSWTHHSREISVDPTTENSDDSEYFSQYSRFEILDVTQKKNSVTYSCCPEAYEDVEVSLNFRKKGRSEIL
Note on pKi: it is the negative log10 of concentration, concentration in mol/L.

Answered cases to consult:
compound | observed_measurement
CC1CC[N+]2(C)CCc3c([nH]c4ccccc34)C2C1 (centres undefined) | 6.20
C=CC1CN2CCC1CC2c1[nH]c2ccccc2c1CCO (centres undefined) | 6.40
CC1(C)C=C(c2cc(Br)c(C3=CC(C)(C)NC(C)(C)C3)s2)CC(C)(C)N1 | 6.40

Exam item: Query for Acetylcholine-binding protein (Lymnaea stagnalis, UniProt P58154): what pKi does the record show for c1ccc2c(c1)CC1CNC2c2ccccc21 (centres undefined) ?
Marked response: 4.90

Exam item: Query for Acetylcholine-binding protein (Lymnaea stagnalis, UniProt P58154): what pKi does the record show for CC(Cc1ccccc1)NC1CN2CCC1CC2 (centres undefined) ?
Marked response: 5.50
